Measured values drawn from patent US12398154B2 for this set.

Target: KRas G12R (Homo sapiens, UniProt P01116, G12R);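 also: TR-FRET displacement assay of compound binding to KRas, read after one hour at room temperature, potency from a four-parameter fit of percent-of-control values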
Sequence (P01116 1-169 isoform P01116-2 G12R): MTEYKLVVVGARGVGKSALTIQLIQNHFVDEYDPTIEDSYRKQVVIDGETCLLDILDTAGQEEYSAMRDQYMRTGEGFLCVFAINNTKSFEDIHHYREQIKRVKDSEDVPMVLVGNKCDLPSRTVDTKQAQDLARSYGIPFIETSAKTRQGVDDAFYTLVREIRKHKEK
Experiment: biochemical
MEASURED_PROPERTY: log10(IC50) (log10 of the value in nM)

COMPOUND	TESTED_TARGET	log10(IC50)
CNS(=O)(=O)C1CCCN(c2nc(OCC34CCCN3CCC4)nc3c(F)c(-c4cccc5cccc(F)c45)ncc23)C1 (stereo not shown)	KRas G12R (Homo sapiens, UniProt P01116, G12R)	3.99
CCc1c(F)ccc2cc(O)cc(-c3ncc4c(N5CCCCC5)nc(OC[C@@H]5C[C@@H](O)CN5C)nc4c3F)c12	KRas G12R (Homo sapiens, UniProt P01116, G12R)	1.15
Cc1cc(-c2ncc3c(N4CCCC(C)(O)C4)nc(OCC45CCCN4CCC5)nc3c2F)c2cn[nH]c2c1 (stereo not shown)	KRas G12R (Homo sapiens, UniProt P01116, G12R)	4.54
O=S1(=O)CCCN1C1CCCN(c2nc(OCC34CCCN3CCC4)nc3c(F)c(-c4cccc5cccc(F)c45)ncc23)C1 (stereo not shown)	KRas G12R (Homo sapiens, UniProt P01116, G12R)	3.68
N#Cc1cccc2cccc(-c3ncc4c(N5CCCC(c6nc[nH]n6)C5)nc(OCC56CCCN5CCC6)nc4c3F)c12 (stereo not shown)	KRas G12R (Homo sapiens, UniProt P01116, G12R)	3.80
CN(C)CC1(COc2nc(N3CCC[C@@](C)(O)C3)c3cnc(-c4cc(O)cc(Cl)c4C4CC4)c(F)c3n2)CC1	KRas G12R (Homo sapiens, UniProt P01116, G12R)	0.78
